B1: C19orf51 (parent)
chain: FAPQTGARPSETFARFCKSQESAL

Variants of: B1
experimentalProtocol: protein stability index of a GFP-peptide fusion (GPS, HEK-293T) (PSI 1-6); higher = more stable;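 also: lentivirally expressed fusions sorted by FACS into six bins by GFP to DsRed ratio, PSI derived from sequencing read proportions per bin multiplied by bin number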
statedConditions: c terminus: a fixed tail appended
The threshold is inclusive: protein stability index of exactly 2 counts as Met; values below receive Not met.

Below are worked cases with known answers.
| sequenceCode | qualitativeLabel |
| --- | --- |
| FAPETGARPSETFARFCKSQESAL [Q4E] | Not met |
| FAPQTGARPSETMARFCKSQESAL [F13M] | Not met |
| FAPHTGARPSETFARFCKSQESAL [Q4H] | Met |

Is protein stability index for FAPQTGARPSATFARFCKSQESAL [E11A] at or above 2?
Not met

Can you check FAPQTGPRPSETFARFCKSQESAL [A7P] next?
Met

Try this variant next: FAPQTGARPSETFMRFCKSQESAL [A14M]
Met

Repeat for the following variant: FAPMTGARPSETFARFCKSQESAL [Q4M]
Not met

Now try FAPQTGARPSETFNRFCKSQESAL [A14N] .
Not met

Another variant to check: FAPQTGARPSETFARFCKSQESAP [L24P]
Not met

How about FAPQTGARPSETFARFDKSQESAL [C17D] ?
Not met

Try this variant too: FAPCTGARPSETFARFCKSQESAL [Q4C]
Met
